Hey, just so you know, these numbers are from patent US12552834.

- Assay system: T1, ENAH EVH1 domain with Arg47 mutated to Ala (human, UniProt Q03173 1-111 (mouse entry))
- T1 construct: also called ENAH R47A; ENAH EVH1 R47A
- T1 sequence (Q03173 other isoform, or with tags, fused parts or gaps limits assumed, stated change not applied): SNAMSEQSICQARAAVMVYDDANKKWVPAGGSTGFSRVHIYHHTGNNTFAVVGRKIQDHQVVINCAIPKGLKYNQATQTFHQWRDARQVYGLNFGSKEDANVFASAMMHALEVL
- Assay protocol: BLI, steady state; SUMO-peptide immobilised, EVH1 monomer in solution
The binders listed here are annotated with their Kd.
Only the number, expressed in µM, is required.

[[record]]
binder = "NHSL1 FP4 2 peptide (biotinylated (BAP tag), Truncation of the NHSL1 36mer that keeps the second FP4 motif, tested as a SUMO fusion) peptide: MAGGLNDIFEAQKIEWHEDTGGSSHHHHHHGSGSGSDSEVNQEAKPEVKPEVKPETHINLKVSDGSSEIFFKIKKTTPLRRLMEAFAKRQGKEMDSLTFLYDGIEIQADQTPEDLDMEDNDIIEAHREQIGGSGSGPVTDCSQGSPLPHSPVFPPPPPEAL"
unit_symbol = "µM"
number = 51

[[record]]
binder = "LPP FP4 2 peptide (biotinylated (BAP tag), Truncation of the LPP 36mer that keeps the second FP4 motif, tested as a SUMO fusion) peptide: MAGGLNDIFEAQKIEWHEDTGGSSHHHHHHGSGSGSDSEVNQEAKPEVKPEVKPETHINLKVSDGSSEIFFKIKKTTPLRRLMEAFAKRQGKEMDSLTFLYDGIEIQADQTPEDLDMEDNDIIEAHREQIGGSGSGPPLDDSSALPSISGNFPPPPPL"
unit_symbol = "µM"
number = 75.2


Input LPP FP4 1 peptide (biotinylated (BAP tag), Truncation of the LPP 36mer that keeps the first FP4 motif, tested as a SUMO fusion) peptide: MAGGLNDIFEAQKIEWHEDTGGSSHHHHHHGSGSGSDSEVNQEAKPEVKPEVKPETHINLKVSDGSSEIFFKIKKTTPLRRLMEAFAKRQGKEMDSLTFLYDGIEIQADQTPEDLDMEDNDIIEAHREQIGGSGSGKQPGGEGDFLPPPPPPLDDSSALPSISGN . Output Kd: 61.3

The binder listed as Minimum General peptide (biotinylated (BAP tag), Engineered peptide, tested as a SUMO fusion) peptide: MAGGLNDIFEAQKIEWHEDTGGSSHHHHHHGSGSGSDSEVNQEAKPEVKPEVKPETHINLKVSDGSSEIFFKIKKTTPLRRLMEAFAKRQGKEMDSLTFLYDGIEIQADQTPEDLDMEDNDIIEAHREQIGGSGSGDFLPPPPGGGGGGSGSGGGSGSFPPPPGG has a reported Kd of 86.9
